System: SF-295 CNS
Assay: NCI tumour cell line growth inhibition, 48 h
Give TGI for every item shown.
Numeric only. Scale: µM

Q: Query: TGI; subject: `O=C(COc1cccc(/C=C2\CSc3ccccc3C2=O)c1)Nc1nccs1`
A: 3.59

Q: Note, next up: `COc1ccc(N=N/C(C(=O)C(F)(F)F)=C(\O)c2ccc(Cl)cc2)cc1`
A: 11.9

Q: Note, next up: `COC(=O)CSSCc1ccc([N+](=O)[O-])cc1`
A: 43

Q: Note, next up: `C(=C\N1CCCCC1)/c1nnnn1-c1ccccc1`
A: 66.9

Q: Note, next up: `CN(CC(=O)N(Cc1ccc(C2CCCCC2)cc1)c1ccc(C(=O)O)cc1)S(=O)(=O)c1c(F)c(F)c(F)c(F)c1F`
A: 29.4

Q: Note, next up: N#CC1c2ccccc2C=CN1C(=O)N(c1ccccc1)c1ccccc1 (stereo not given)
A: 25.2

###

Give TGI for every item shown.
Test system: DU-145 prostate
Experiment: NCI tumour cell line growth inhibition, 48 h

Q: Query: TGI; subject: `O=c1cnn(CCOCP(=O)(O)O)c(=O)[nH]1`
A: > 100 µM

Q: Note, next up: `CCCCCCCCCCCCCC[C@@H](O)[C@H]1CC[C@H]([C@H]2CC[C@H]([C@H](O)CCCCCC[C@@H](O)CC3=C[C@H](C)OC3=O)O2)O1`
A: > 25 µM

Q: Note, next up: `CC(=O)N1CCn2c1nc1cc(Cl)ccc12`
A: > 100 µM

Q: Note, next up: `COC(=O)CSSCc1ccc([N+](=O)[O-])cc1`
A: 50.7 µM

Q: Note, next up: `CC[C@H](C)[C@H](NC(=O)CN(C)C)C(=O)N(C)[C@H](C[C@@H](OC(C)=O)c1nc(C(=O)NC23CC(C(=O)OC)(C2)C3)cs1)C(C)C`
A: > 25 µM

Q: Note, next up: O=C1Cc2cc(C(=O)NC3C[C@H]4CC[C@@H](C3)N4S(=O)(=O)CC3CCN(CCCC(F)(F)F)CC3)c(Cl)cc2N1 (some centres undefined)
A: > 100 µM

Q: Note, next up: `Cn1c(-c2c(N)n(CCCN3CCOCC3)c3nc(C#N)c(C#N)nc23)nc2ccccc21`
A: 29.2 µM

Q: Note, next up: `Cn1cc(C2=C(c3cn(CCCCCSC(=N)N)c4ccccc34)C(=O)NC2=O)c2ccccc21`
A: 6.93 µM

Q: Note, next up: `COc1cc2c3c(n(C)c(=O)c2cc1OC)-c1ccc(C#N)cc1C3=O`
A: > 100 µM

###

Tested on: A498 renal
Test: NCI tumour cell line growth inhibition, 48 h
quantity_name: TGI

Q: Query: TGI; subject: Nc1ncnc2c1ncn2C1CC(OCc2ccccc2[N+](=O)[O-])C(CO)O1 (stereo unspecified)
A: > 50 µM

Q: Note, next up: CN(C)c1cc[n+](-c2nc(/N=C(\[O-])C(F)(F)F)nc3c2ncn3C2CC(O)C(CO)O2)cc1 (stereo unspecified)
A: > 100 µM

Q: Note, next up: `CCOC(=O)Oc1ccc2c(c1)c(=O)c1c(NCCN(CC)CC)ccc3nnn2c31`
A: 21.5 µM

Q: Note, next up: O=C1Cc2cc(C(=O)NC3C[C@H]4CC[C@@H](C3)N4S(=O)(=O)CC3CCN(CCCC(F)(F)F)CC3)c(Cl)cc2N1 (stereo partly specified)
A: > 100 µM

Q: Note, next up: `O=C(COc1cccc(/C=C2\CSc3ccccc3C2=O)c1)Nc1nccs1`
A: 28.9 µM

Q: Note, next up: Cc1ccc(S(=O)(=O)N/N=C(/c2nc3ccc([N+](=O)[O-])cc3[nH]c2=O)C(O)c2ccc(C(O)/C(=N\NS(=O)(=O)c3ccc(C)cc3)c3nc4ccc([N+](=O)[O-])cc4[nH]c3=O)cc2)cc1 (stereo unspecified)
A: > 100 µM

Q: Note, next up: COC(=O)C=Cc1ccc2nncnc2c1 (mixture of isomers)
A: > 100 µM

Q: Note, next up: `O=C(NNc1ccccc1)/C(=C/c1ccc2c(c1)OCO2)NC(=O)c1ccccc1`
A: > 100 µM

Q: Note, next up: `C=CC(=O)N1CC2(CC(n3nc(-c4ccc5c(cnn5C)c4)c(-c4c(Cl)c(C)cc5[nH]ncc45)c3C)C2)C1`
A: 13.3 µM

Q: Note, next up: `CC(=O)N1CCn2c1nc1cc(Cl)ccc12`
A: > 100 µM

Q: Note, next up: `C[C@H]1S[C@H](c2c(Cl)cccc2Cl)N2Cc3ccccc3N=C12`
A: 66 µM

Q: Note, next up: `N=c1c2c(=N)n3c(nc2nc2n1-c1ccccc1Sc1ccccc1-2)sc1cc(Cl)ccc13`
A: 6.33 µM

Q: Note, next up: `CCOC(=O)N(c1ccccc1)N(CC)C(=O)/C(C)=N/Nc1ccc([N+](=O)[O-])cc1`
A: 28 µM

Q: Note, next up: `COC(=O)[C@H]1CCCN1C(=O)[C@H]1CCCN1C(=O)[C@H](Cc1c[nH]c2ccccc12)NC(=S)Nc1cc(C(F)(F)F)cc(C(F)(F)F)c1`
A: > 100 µM

Q: Note, next up: `ClC(Cl)[Si]12OCCN(CCO1)CCO2`
A: > 100 µM

Q: Note, next up: `O=C1NC(=NCCCc2ccccc2)S/C1=C\c1ccc2ncccc2c1`
A: 8.09 µM

Q: Note, next up: `CCc1nc2ccc(NCCN(C)C)c3c(=O)c4ccccc4n1c23`
A: 11 µM

Q: Note, next up: `CC(C)(C)N(Cc1ccc2c(c1)OCO2)C(=O)/C=C\Sc1ccccc1`
A: > 100 µM

Q: Note, next up: `CN(CCCNC(=O)CCOCCOCCOCCNC(=O)Cc1ccc2ccc3cccc4ccc1c2c34)CCCNc1cc(-c2ccc3ccccc3c2)nc2ccccc12`
A: 2.92 µM

Q: Note, next up: `COC(=O)c1ccc(Nc2nc3nc[nH]c3c(=O)[nH]2)cc1`
A: > 100 µM

Q: Note, next up: `CC(=O)N(O)c1ccc(-c2nc3ccccc3s2)cc1`
A: > 100 µM

Q: Note, next up: N#CC1c2ccccc2C=CN1C(=O)N(c1ccccc1)c1ccccc1 (stereo unspecified)
A: 24.4 µM

Q: Note, next up: `C(=C\N1CCCCC1)/c1nnnn1-c1ccccc1`
A: > 100 µM

Q: Note, next up: `O=C(CCc1ccccc1)ON1C(=S)C(c2ccccc2)(c2ccccc2)N=C1Sc1ccccc1`
A: > 100 µM

Q: Note, next up: `NS(=O)(=O)OCCCCCCCOS(N)(=O)=O`
A: 770 µM

Q: Note, next up: CN(C)/N=C1\CC(c2ccccc2)C(C#N)(C#N)C1(C#N)C#N (stereo unspecified)
A: 33.8 µM

Q: Note, next up: CN1C(=O)C2(c3ccccc31)N(c1ccc(Cl)cc1)C(=O)C2(c1ccccc1)c1ccccc1 (stereo unspecified)
A: > 100 µM

Q: Note, next up: `COc1ccc2c(OCc3nnc4ccc(-c5ccccc5)nn34)ccnc2c1`
A: > 100 µM

Q: Note, next up: `COc1ccc(/C=N/n2cnc3[nH]c(C)c(Cc4ccccc4)c3c2=N)cc1`
A: > 100 µM

Q: Note, next up: `CN(C)C(=S)SCC(=O)Nc1ccccc1`
A: > 100 µM

Q: Note, next up: `COc1cc2nc(-c3cccs3)[nH]c(=O)c2cc1OC`
A: > 100 µM

###

Give TGI for every item shown.
Tested on: 786-0 renal
Assay: NCI tumour cell line growth inhibition, 48 h
Numeric only. Scale: µM

Q: Query: TGI; subject: O=C(CN1C(=O)S/C(=C\C(Cl)=C\c2ccccc2)C1=O)NC1C=CS(=O)(=O)C1 (stereo unspecified)
A: 4.37

Q: Note, next up: `O=[N+]([O-])c1ccc(O)c(/C=N/NC(=S)N2CCCCC2)c1`
A: 13.8

Q: Note, next up: `CCC(=O)c1c(C(F)(F)F)n([O-])c2cc(F)c(F)cc2[n+]1=O`
A: 2.71

###

System: MALME-3M melanoma
Assay: NCI tumour cell line growth inhibition, 48 h
quantity_name: GI50

Q: Query: GI50; subject: `COc1ccc(N=N/C(C(=O)C(F)(F)F)=C(\O)c2ccc(Cl)cc2)cc1`
A: 16.1 µM

Q: Note, next up: `Oc1[nH]c2ccccc2c1/C=c1/cc2c(c(-c3ccc(F)cc3)n1)=Nc1ccccc1-2`
A: 0.843 µM

Q: Note, next up: `Cn1c(-c2c(N)n(CCCN3CCOCC3)c3nc(C#N)c(C#N)nc23)nc2ccccc21`
A: 31.9 µM

Q: Note, next up: `CN1CCN(CCCOc2cccc3nc(Nc4ccc(Cl)c(C(F)(F)F)c4)ccc23)CC1`
A: 1.75 µM

Q: Note, next up: `COc1nnc2ccc(N3CCC(c4ccc(OCCN5CCN(C)C(=O)[C@H]5C)cc4)CC3)nn12`
A: 0.431 µM

Q: Note, next up: CC(=O)[CH-]C(=O)c1ccccc1.CC(=O)[CH-]C(=O)c1ccccc1.C[C@]12CCC(=O)C=C1CC[C@@H]1C2CC[C@@]2(C)C1CC[C@]2(C)[O-].C[C@]12CCC(=O)C=C1CC[C@@H]1C2CC[C@@]2(C)C1CC[C@]2(C)[O-].Cl.[Ti+4] (stereo partly drawn)
A: 13.2 µM

Q: Note, next up: `CC(=O)[O][Hg][c]1c(C)c(C)cc(C)c1C`
A: 1.33 µM

Q: Note, next up: CN1C(=O)C2(c3ccccc31)N(c1ccc(Cl)cc1)C(=O)C2(c1ccccc1)c1ccccc1 (stereo not drawn)
A: 50.8 µM
